Attribution: patent US20110003820A1

TESTED_ON: transmembrane allosteric modulatory sites of mGluR5 receptors in cortical membranes (Rattus norvegicus)
Sequence (P31424 21-1203): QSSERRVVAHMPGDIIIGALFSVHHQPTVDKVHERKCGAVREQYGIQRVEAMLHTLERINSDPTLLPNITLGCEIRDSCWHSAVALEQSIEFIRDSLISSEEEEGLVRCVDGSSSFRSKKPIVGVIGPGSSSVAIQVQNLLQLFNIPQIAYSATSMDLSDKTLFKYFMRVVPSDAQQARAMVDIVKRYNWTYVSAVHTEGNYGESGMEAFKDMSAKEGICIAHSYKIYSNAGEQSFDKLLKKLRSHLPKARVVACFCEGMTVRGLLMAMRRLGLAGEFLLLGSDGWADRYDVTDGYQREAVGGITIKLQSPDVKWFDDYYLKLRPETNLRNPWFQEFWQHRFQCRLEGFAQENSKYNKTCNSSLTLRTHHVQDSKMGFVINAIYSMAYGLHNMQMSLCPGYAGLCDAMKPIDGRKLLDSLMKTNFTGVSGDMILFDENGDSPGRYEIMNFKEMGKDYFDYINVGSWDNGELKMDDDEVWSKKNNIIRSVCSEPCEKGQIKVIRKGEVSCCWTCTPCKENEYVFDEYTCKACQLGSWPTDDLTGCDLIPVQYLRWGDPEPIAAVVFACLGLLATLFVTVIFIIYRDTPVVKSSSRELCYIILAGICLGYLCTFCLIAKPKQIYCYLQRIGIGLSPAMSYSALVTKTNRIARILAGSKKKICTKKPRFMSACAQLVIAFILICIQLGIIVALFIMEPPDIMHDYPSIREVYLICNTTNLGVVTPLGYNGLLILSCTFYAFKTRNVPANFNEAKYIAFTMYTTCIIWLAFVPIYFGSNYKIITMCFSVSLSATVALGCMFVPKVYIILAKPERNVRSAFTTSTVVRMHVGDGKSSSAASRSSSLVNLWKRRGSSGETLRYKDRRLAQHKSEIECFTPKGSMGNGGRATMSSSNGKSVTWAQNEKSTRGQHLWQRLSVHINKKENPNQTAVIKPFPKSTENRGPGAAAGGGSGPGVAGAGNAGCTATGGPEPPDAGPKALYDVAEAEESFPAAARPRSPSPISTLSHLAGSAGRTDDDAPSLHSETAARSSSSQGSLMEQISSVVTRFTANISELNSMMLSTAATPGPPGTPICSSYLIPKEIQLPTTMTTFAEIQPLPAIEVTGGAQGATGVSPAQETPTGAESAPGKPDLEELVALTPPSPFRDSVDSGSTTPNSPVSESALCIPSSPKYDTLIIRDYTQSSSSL
ASSAY_PROTOCOL: [3H]-MMPEP binding assay in rat cortical membranes
CONDITION_NOTES: 3H-MMPEP radioligand, read-out: mGluR5_M_MPEP_r_CTX_IC50
For each entry below, report its IC50 value.
The reply should be a number in µM, with the unit left off.

Exercise: Can you look up the measured IC50 of Cc1ccc2n1CCN(C(=O)c1cc3ncc(Cl)cn3n1)C2C (stereo not shown) for me?
Key: 0.274

Exercise: Can you look up the measured IC50 of CC1c2ccc(Cl)n2CCN1C(=O)c1cc2ncc(Cl)cn2n1 (stereo not shown) for me?
Key: 0.042

Exercise: Can you look up the measured IC50 of CN1c2ccccc2CCN1C(=O)c1cc2ncc(Br)cn2n1 for me?
Key: 0.281

Exercise: Can you look up the measured IC50 of Cc1ccc2n1CCN(C(=O)c1cc3ncc(Br)cn3n1)C2C (stereo not shown) for me?
Key: 0.219
